- assaySystem: Alpha-2B adrenergic receptor (Homo sapiens)
- Sequence (P18089 whole entry): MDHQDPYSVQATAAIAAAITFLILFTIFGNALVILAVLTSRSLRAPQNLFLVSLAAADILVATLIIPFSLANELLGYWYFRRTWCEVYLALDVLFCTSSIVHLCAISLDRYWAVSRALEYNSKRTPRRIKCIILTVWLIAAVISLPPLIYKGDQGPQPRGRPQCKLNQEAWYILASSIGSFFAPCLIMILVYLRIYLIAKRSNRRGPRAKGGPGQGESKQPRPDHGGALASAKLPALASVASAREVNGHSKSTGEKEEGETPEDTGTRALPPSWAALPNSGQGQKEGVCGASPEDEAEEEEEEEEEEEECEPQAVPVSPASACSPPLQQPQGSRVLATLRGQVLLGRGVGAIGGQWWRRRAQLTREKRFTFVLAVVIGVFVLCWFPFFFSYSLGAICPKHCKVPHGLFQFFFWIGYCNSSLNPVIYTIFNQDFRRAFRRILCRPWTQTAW
parameterMeasured: Ki (nM)

- O=C(OCCN1CCCC1)N1c2ccccc2Sc2ccccc21: 800
